Provide the recorded pIC50 for the entries that follow.
# Experimental System: Na^+ /H^+ exchanger of rabbit erythrocytes (Oryctolagus cuniculus, UniProt P23791)
# Construct: exchanger of rabbit erythrocytes
# Sequence (P23791 whole entry): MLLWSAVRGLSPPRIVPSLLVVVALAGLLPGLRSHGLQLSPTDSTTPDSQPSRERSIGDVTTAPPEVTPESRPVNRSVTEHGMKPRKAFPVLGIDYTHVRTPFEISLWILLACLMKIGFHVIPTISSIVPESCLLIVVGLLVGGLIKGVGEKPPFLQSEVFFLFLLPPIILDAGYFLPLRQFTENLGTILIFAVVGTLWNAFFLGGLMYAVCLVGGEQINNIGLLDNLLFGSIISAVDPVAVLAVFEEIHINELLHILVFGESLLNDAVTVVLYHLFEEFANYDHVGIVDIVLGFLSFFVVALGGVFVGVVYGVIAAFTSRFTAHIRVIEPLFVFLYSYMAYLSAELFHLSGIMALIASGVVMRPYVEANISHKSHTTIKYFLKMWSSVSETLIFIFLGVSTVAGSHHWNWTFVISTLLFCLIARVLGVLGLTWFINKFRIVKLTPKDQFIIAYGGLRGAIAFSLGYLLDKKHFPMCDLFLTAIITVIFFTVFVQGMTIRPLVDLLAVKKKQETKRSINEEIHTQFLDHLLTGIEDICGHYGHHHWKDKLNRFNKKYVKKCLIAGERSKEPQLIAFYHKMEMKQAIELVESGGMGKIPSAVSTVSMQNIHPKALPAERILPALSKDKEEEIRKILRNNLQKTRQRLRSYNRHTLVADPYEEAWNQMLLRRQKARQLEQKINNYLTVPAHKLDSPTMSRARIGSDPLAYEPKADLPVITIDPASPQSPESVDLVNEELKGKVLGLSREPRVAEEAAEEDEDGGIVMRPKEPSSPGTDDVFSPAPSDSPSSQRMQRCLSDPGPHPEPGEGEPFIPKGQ
# Test Protocol: Inhibition of the Na^+ /H^+ exchanger of rabbit erythrocytes (amiloride-sensitive sodium influx, flame photometry)
# Particulars: pH 7.4, 37° C., hyperosmolar salt/sucrose medium
Where a name gives a salt, the structure may show the parent alone.
Answers are plain numbers, as −log10 of the molar value.

>>> reported("CS(=O)(=O)c1cc(C(=O)N=C(N)N)ccc1Oc1ccc(-c2ccccn2)cc1 [Example 5, dihydrochloride]")
6.52
>>> reported("CS(=O)(=O)c1cc(C(=O)N=C(N)N)ccc1Oc1ccc(-c2nccn2Cc2ccccc2)cc1 [Example 1, dihydrochloride]")
6.52
>>> reported("CS(=O)(=O)c1cc(C(=O)N=C(N)N)ccc1Oc1ccc(-c2cccnc2)cc1 [Example 3, dihydrochloride]")
6.70

Next item in the queue.
Consider CS(=O)(=O)c1cc(C(=O)N=C(N)N)ccc1Oc1ccc(-c2ncc[nH]2)cc1 [Example 2, dihydrochloride] . Its measured pIC50 is 6.52

Where do these numbers come from? They come from patent US5719169A.
